target: pooled human IgG
// assign condition met if Enzyme Activity Endpoint Assay: Fab′2 falls strictly below 40 ng/µL, else condition not met (ties count as condition not met)

-- ask Determine if PRT-579 (protein) MANQEIRYSKATPSHITSVWTKGVTPPENFIYNEDVLHAPYLPNQGWYDITKTFNGKDDLLCGAATAGNMLHWWFDQNKEQIERYLKEHPEKQKINFNGEQMFDVKEAIDTKDSQTNSKLFEYFKDKAFPYLSTKHLGVFPDHVIDMFINGYRLSLTNHGPTPVKEQNKDPRGGIFDAVFTRGDQSKLLTSRHDFKEKTLNEISQLIKQELTEGKALGLSHTYANVRINHVINLWGADFNAEGNLEAIYVTDSDSNASIGMKKYYVGVNSAGKVAISAKEIEGDNIGAQVLGLFTLSTGQDIWQQTNLEHHHHHH shows Enzyme Activity Endpoint Assay: Fab′2 strictly lower than 40 ng/µL.
-- reply condition not met

-- ask Determine if PRT-591 (protein) MANQEIRYSEETPSTITSVWTKGVTPPTDFIQNEDVLHAPYIANQGWYDITKTFNGKDDLLCGAATAGNMLHWWFDQNKEQIKNYLKKHPEKQKINFNGEQMFDVKEAIDTKDSQTDSALFEYFKDKAFPYLSTKHLGVFPDHVIDMFINGYRLSLTNHGPTPVKRGTKDPRGGIFDAVFTRGDQSKLLTSRHDFKEKTLNEISDLIKQELTEGKALGLSHTYANVRINHVINLWGADFNAEGNLEAIYVTDSDSNASIGMKKYYVGVNSAGKVAISAKEIEGDNIGAQVLGLFTLSTGQDIWNQTNLEHHHHHH shows Enzyme Activity Endpoint Assay: Fab′2 strictly lower than 40 ng/µL.
-- reply condition met

-- ask Determine if PRT-14 (protein) MANQEIRYSEVTPYTVTSVWTKGVTPPADFTQGEDVFHAPYIANQGWYDITKTFNGKDDLLCGAATAGNMLHWWFDQNKEQIERYLKKHPEKQKINFNGEQMFDVKEAIDTKDSQTDSELFEYFKEKAFPYLSTKHLGVFPDHVLDMFINGYRLSLTNHGPTPVKEGSKDPRGGIFDAVFTRGDQSKLLTNRHDFKEKTLSEISDLIKKELTEGKALGLSHTYANVRINHVINLWGADFDSEGNLEAIYVTDSDSNASIGMKKYFVGVNSAGKVAISAKEIKEDNIGAQVLGLFTLSTGQDIWNQTN shows Enzyme Activity Endpoint Assay: Fab′2 strictly lower than 40 ng/µL.
-- reply condition met

-- ask Determine if PRT-25 (protein) MANQEIRYSEVTPYHVTSVWTKGVTPPANFTQGEDVFHAPYVANQGWYDITKTFNGKDDLLCGAATAGNMLHWWFDQNKDQIERYLKEHPEKQKINFNGEQMFDVKEAIDTKDSQTDSKLFEYFKEKAFPYLSTKHLGVFPDHVIDMFINGYRLSLTNHGPTPVKEGSKDPRGGIFDAVFTRGDQSKLLTSRHDFKEKNLKEISDLIKQELTEGKALGLSHTYANVRINHVINLWGADFDSNGNLEAIYVTDSDSNASIGMKKYFVGVNSAGKVAISAKEIEEDNIGAQVLGLFTLSTGQDIWNQTN shows Enzyme Activity Endpoint Assay: Fab′2 strictly lower than 40 ng/µL.
-- reply condition not met

-- ask Determine if PRT-535 (protein) MANQEIRYSGDSEWANKKVWVYGITPPEEKAWFYSTYYLPWKKEYGWYDCNKRNPTADGMMCWAATASNLMHWWIAQNKEYIDLYGDKYKGPDKINFNGEQMFDVKEYIDPLDKPQESDIFQCFIDKAFADLSTKHEAGKGDEGINWFIHGIIPSYPAHGPTPVKLRYPYNPAGYFKDVFPRGDGVVLLGNNGDFKELGKERFNETIKDALANKKGIGLSIGPVNVRSSHVVTMWGAEFDENGDVSYIYMADNNDRWGVGCIRYQIVYVEGGTYTCYKTEIIGSDRPIPINRLVTLELGEEYWKQTNLEHHHHHH shows Enzyme Activity Endpoint Assay: Fab′2 strictly lower than 40 ng/µL.
-- reply condition met

-- ask Determine if PRT-41 (protein) MANQEIRYSEVTPYHVTSVWTKGVTPPANFTQGEDVFHAPYVANQGWYDITKTFNGKDDLLCGAATAGNMLHWWFDQNKDYIDRYLEEHPEKQKINFNGEQMFDVKEAIDTKNSQLDSKLFEYFKEKAFPYLSTKHLGVFPDLVLDMFINGYRLSLTNHGPTPVKEGSKDPRGGIFDAVFTRGDQSKLLTSRHDFKEKNLKEISDLIKKELTEGKALGLSHTYANVRINHVINLWGADFDSNGNLKAIYVTDSDSNASIGMKKYFVGVNSAGKVAISAKEIKEDNIGAQVLGLFTLSTGQDSWNQTN shows Enzyme Activity Endpoint Assay: Fab′2 strictly lower than 40 ng/µL.
-- reply condition met

-- ask Determine if PRT-23 (protein) MANQEIRYSEVTPYHVTSVWTKGVTPPANFTQGEDVFHAPYVANQGWYDITKTFNGKDDLLCGAATAGNMLHWWFDQNKDQIERYLKEHPEKQKINFNGEQMFDVKEAIDTKNSQTDSKLFEYFKEKAFPYLSTKHLGVFPDHVIDMFINGYRLSLTNHGPTPVKEGSKDPRGGIFDAVFTRGDQSKLLTSRHDFKEKNLKEISDLIKKELTEGKALGLSHTYANVRINHVINLWGADFDSNGNLEAIYVTDSDSNASIGMKKYFVGVNSAGKVAISAKEIKEDNIGAQVLGLFTLSTGQDIWNQTN shows Enzyme Activity Endpoint Assay: Fab′2 strictly lower than 40 ng/µL.
-- reply condition not met

-- ask Determine if PRT-18 (protein) MANQEIRYSEETPYHVTSVWTKGVTPPTNFTQGEDVFHAPYIANQGWYDITKTFNGKDDLLCGAATAGNMLHWWFDQNKEEIEKYLEEHPEKQKINFNGEQMFDVKEVIDTKDSQLDSKLFEYFKEKAFPYLSTKHLGVFPDHVIDMFINGYRLNLTNHGPTPVKEGSKDPRGGIFDAVFTRGDQSKLLTERHDFKEKTLKEISQLIKQELTEGKALGLSHTYANVRINHVINLWGADFDSEGNLEAIYVTDSDSNASIGMKKYFVGVNSAGKVAISAKEIEEDNIGAQVLGLFTLSTGQDIWEQTN shows Enzyme Activity Endpoint Assay: Fab′2 strictly lower than 40 ng/µL.
-- reply condition not met
